Test: in vivo
Design: species or system mice
Conditions: mouse, sc, 10 mg/kg
Procedure: The brain penetrance of galangin and progalangin were assessed in a standard PK comprising subcutaneous (Sub-Q) injection of 5 adult non-transgenic mice with 50 ul of a 5 mg/ml stock of compound in dimethylsulfoxide (DMSO) or a dose of 10 mg/kg for a 25 g mouse. Injected mice were anesthetized with ketamine/xylazine at 1, 2, 4, 6, and 8 hours and blood collected by cardiac puncture. […] The compound levels were determined using a LC-MS/MS approach. […]

CHEMICAL SMILES	concentration at 1 h (ng/g)
O=c1c(O)c(-c2ccccc2)oc2cc(O)cc(O)c12	40

Reference source: patent USRE49873E1
